Where these numbers come from: BindingDB's records for doi:10.1021/acs.jmedchem.7b01525

Consider the following compounds; for each one, report its EC50.
Target: Urotensin-2 receptor (Homo sapiens)
Sequence (Q9UKP6 whole entry): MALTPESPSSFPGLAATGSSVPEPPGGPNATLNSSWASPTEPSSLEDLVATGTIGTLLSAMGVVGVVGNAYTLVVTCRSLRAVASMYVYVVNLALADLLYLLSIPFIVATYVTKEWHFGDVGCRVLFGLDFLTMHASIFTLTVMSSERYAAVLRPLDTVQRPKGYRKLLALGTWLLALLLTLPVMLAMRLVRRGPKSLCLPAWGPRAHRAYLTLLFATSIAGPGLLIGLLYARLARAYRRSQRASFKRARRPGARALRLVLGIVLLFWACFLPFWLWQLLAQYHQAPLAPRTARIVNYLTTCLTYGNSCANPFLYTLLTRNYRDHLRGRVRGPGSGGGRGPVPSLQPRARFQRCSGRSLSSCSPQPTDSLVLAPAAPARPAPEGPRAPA
Test: Allosteric modulation of human urotensin-2 receptor expressed in HEK293 cells assessed as change in URP-induced Gq activation by measuring URP pEC50 at 10^-5 M preincubated for 30 mins followed by URP addition by BRET assay (Rvb = 8.28 +/- 0.08 No_unit)
Field: numeric (nM). Do not append units.

The recorded EC50 for NCCCCN1N=C(C=Cc2ccc(O)cc2)c2ccccc2N(Cc2ccc(-c3ccccc3)cc2)C1=O is 4.2

Value of EC50 reported for the compound NCCCCN1N=C(CCc2ccc(O)cc2)c2ccccc2N(Cc2ccc3ccccc3c2)C1=O is 5

What the record says about NCCCN1N=C(CCc2nc3ccccc3s2)c2ccccc2N(Cc2ccc3ccccc3c2)C1=O : EC50 is 6.2

What the record says about COc1ccc(C=CC2=NN(CCCCN)C(=O)N(Cc3ccc(-c4ccccc4)cc3)c3ccccc32)cc1 : EC50 is 7.1
